# EXPERIMENT: in vivo
# ASSAY_CONDITIONS: female, Sprague-Dawley, rat, sc, 10 mg/kg
METRIC_NAME: AUC(0-inf) (ng·h/mL)
Numbers only; they are read as ng·h/mL.

Recorded AUC(0-inf) for `Cc1nc2n(c(=O)c1CCN1CCC(c3noc4cc(F)ccc34)CC1)CCCC2` , please?
13300

* * *

# EXPERIMENT: in vivo
# ASSAY_CONDITIONS: female, Sprague-Dawley, rat, sc, 10 mg/kg
METRIC_NAME: AUC(0-t) (ng·h/mL)
Numbers only; they are read as ng·h/mL.

Recorded AUC(0-t) for `Cc1nc2n(c(=O)c1CCN1CCC(c3noc4cc(F)ccc34)CC1)CCCC2` , please?
13200

Attribution: patent US12285524B2
